Item-by-item account of EC50
# SYSTEM: T1, DcR3 (UniProt O95407 30-300, limits assumed)
# T1 construct: the construct is not described; also called decoy receptor DcR3; TNFRSF6B
# T1 sequence (looked up): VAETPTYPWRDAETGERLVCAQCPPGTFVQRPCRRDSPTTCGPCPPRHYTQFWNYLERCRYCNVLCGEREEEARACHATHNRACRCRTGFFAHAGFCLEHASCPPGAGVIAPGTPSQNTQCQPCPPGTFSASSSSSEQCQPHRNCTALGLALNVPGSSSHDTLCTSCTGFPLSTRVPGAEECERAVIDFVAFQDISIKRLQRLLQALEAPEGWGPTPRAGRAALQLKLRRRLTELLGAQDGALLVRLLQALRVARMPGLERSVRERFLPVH
# PROTOCOL TEXT: ELISA, DcR3
Field: numeric (nM). Do not append units.

BINDER	EC50 [nM]
TL1W137 (His-TEV-TL1A K240S) (ligand, also called TL1W137 (K240S)) HHHHHHENLYFQGLKGQEFAPSHQQVYAPLRADGDKPRAHLTVVRQTPTQHFKNQFPALHWEHELGLAFTKNRMNYTNKFLLIPESGDYFIYSQVTFRGMTSECSEIRQAGRPNKPDSITVVITKVTDSYPEPTQLLMGTKSVCEVGSNWFQPIYLGAMFSLQEGDKLMVNVSDISLVDYTSEDKTFFGAFLL	11.8
TL1W106 (His-TEV-TL1A T185D) (ligand, also called TL1W106 (T185D)) HHHHHHENLYFQGLKGQEFAPSHQQVYAPLRADGDKPRAHLTVVRQTPTQHFKNQFPALHWEHELGLAFTKNRMNYTNKFLLIPESGDYFIYSQVTFRGMTSECSEIRQAGRPNKPDSITVVITKVDDSYPEPTQLLMGTKSVCEVGSNWFQPIYLGAMFSLQEGDKLMVNVSDISLVDYTKEDKTFFGAFLL	79.9
TL1W100 (His-TEV-TL1A S176L) (ligand, also called TL1W100 (S176L)) HHHHHHENLYFQGLKGQEFAPSHQQVYAPLRADGDKPRAHLTVVRQTPTQHFKNQFPALHWEHELGLAFTKNRMNYTNKFLLIPESGDYFIYSQVTFRGMTSECSEIRQAGRPNKPDLITVVITKVTDSYPEPTQLLMGTKSVCEVGSNWFQPIYLGAMFSLQEGDKLMVNVSDISLVDYTKEDKTFFGAFLL	15

Could you share which EC50 value was measured for TL1W81 (His-TEV-TL1A K111S) (ligand, also called TL1W81 (K111S)) HHHHHHENLYFQGLKGQEFAPSHQQVYAPLRADGDKPRAHLTVVRQTPTQHFSNQFPALHWEHELGLAFTKNRMNYTNKFLLIPESGDYFIYSQVTFRGMTSECSEIRQAGRPNKPDSITVVITKVTDSYPEPTQLLMGTKSVCEVGSNWFQPIYLGAMFSLQEGDKLMVNVSDISLVDYTKEDKTFFGAFLL ? 50.9

Same question, TL1W105 (His-TEV-TL1A T185N) (ligand, also called TL1W105 (T185N)) HHHHHHENLYFQGLKGQEFAPSHQQVYAPLRADGDKPRAHLTVVRQTPTQHFKNQFPALHWEHELGLAFTKNRMNYTNKFLLIPESGDYFIYSQVTFRGMTSECSEIRQAGRPNKPDSITVVITKVNDSYPEPTQLLMGTKSVCEVGSNWFQPIYLGAMFSLQEGDKLMVNVSDISLVDYTKEDKTFFGAFLL this time 11.3

Let us now turn to TL1W85 (His-TEV-TL1A G124S) (ligand, also called TL1W85 (G124S)) HHHHHHENLYFQGLKGQEFAPSHQQVYAPLRADGDKPRAHLTVVRQTPTQHFKNQFPALHWEHELSLAFTKNRMNYTNKFLLIPESGDYFIYSQVTFRGMTSECSEIRQAGRPNKPDSITVVITKVTDSYPEPTQLLMGTKSVCEVGSNWFQPIYLGAMFSLQEGDKLMVNVSDISLVDYTKEDKTFFGAFLL 57.1
